assay summary: photoluminescence quantum yield (fraction); solvent given as SMILES
recorded conditions: in CO
Please map values of photoluminescence quantum yield to classes as shown: lower = under 0.03, middle = from 0.03 up to 0.3, upper = 0.3 and over

// known answers, use as guide
# smiles entry, group
data = [
    ("Cc1cc(C)n2c1C=C1c3ccccc3C(c3c[nH]c4ccccc34)=[N+]1[B-]2(F)F", "upper"),
    ("CN1/C(=C/C=C(/C=C/C2=[N+](C)c3ccccc3C2(C)C)c2ccc(C(F)(F)F)cc2)C(C)(C)c2ccccc21", "middle"),
    ("CCC(=O)c1ccc2cc(N(C)C)ccc2c1", "upper"),
]

Which bin should I file CCN(CC)c1ccc2cc(/C=C(\C#N)c3nc4ccccc4o3)c(=O)oc2c1 under?
lower

Any idea which band Cc1nn(-c2ccccc2)c(C2=NN(c3ccc(Br)cc3)[C@@H](c3ccccc3)[C@@H]2c2ccccc2)c1C#N is in?
upper

For this compound, which bin applies? CC1=[N+]2C(=c3c4c5ccccc5cc5cccc(c6cc(C)n(c36)[B-]2(F)F)c54)C=C1
middle

Would you mind sorting Cn1cc(-c2nc3ccccc3nc2/C=C/N2CCCC2)c2ccccc21 into the appropriate category?
lower

Textbook exercise: identify the category of the compound given here, COc1ccc(C2=C3C=c4c(oc5cc6c(cc45)[C@H]4CC[C@]5(C)C(=O)CC[C@H]5[C@@H]4CC6)=[N+]3[B-](F)(F)n3c2cc2c4cc5c(cc4oc23)CC[C@@H]2[C@@H]5CC[C@]3(C)C(=O)CC[C@@H]23)cc1 , according to its measured value.
upper

# bin label for CCN(CC)c1ccc(C2=C3C(C)=CC(C)=[N+]3[B-](F)(F)n3c(C)cc(C)c32)cc1
upper

// return the class label for C[N+]1=C(/C=C/C2=C3Oc4c(cc5c6c4CCCN6CCC5)C(c4ccccc4C(=O)O)=C3CCC2)C(C)(C)c2ccccc21
upper

Classify this compound: O=C1/C(=C/C=C/c2cc3c4c(c2)CCCN4CCC3)CC/C1=C\C=C\c1cc2c3c(c1)CCCN3CCC2
lower

Which class is correct for the following compound? Nc1ccc2c(c1)C(=O)c1ccc(N)cc1C2=O
lower

Form: Item = CN(C)c1ccc(/C=C/c2nc3ccccc3o2)cc1 ; Class = ?
lower

Which band does COc1ccc(-c2cc3c4c(c2)CCc2cc(-c5ccc(OC)cc5)cc(c2-4)CC3)cc1 fall in?
upper

Sort into band: Cc1cccc2nc3c(=O)[nH]c(=O)[nH]c3nc12
middle

Category of Nc1ccc2[nH]ncc2c1 :
upper

Sort into band: Cc1ccc(/C=C(\c2ccccc2)c2nc3ccccc3o2)cc1
lower

Class for O=C1NC(=O)/C(=C\c2ccccc2O)S1 ?
lower

====

assay summary: photoluminescence quantum yield (fraction); solvent given as SMILES
recorded conditions: in ClCCl
measured property: photoluminescence quantum yield

Here is how some compounds turned out for photoluminescence quantum yield.
# compound, photoluminescence quantum yield
records = [
    ("CCCCC1C(=O)c2cc(Oc3ccc(C(C)(C)C)cc3)c3c4c(Oc5ccc(C(C)(C)C)cc5)cc5c6c(cc(Oc7ccc(C(C)(C)C)cc7)c(c7c(Oc8ccc(C(C)(C)C)cc8)cc(c2c37)C1=O)c64)C1=C(C5=O)c2ccc3ccccc3[n+]2[B-](F)(F)O1 (configuration not stated)", 0.5),
    ("CC(C)[Si](C#Cc1c2ccccc2c(C#C[Si](C(C)C)(C(C)C)C(C)C)c2nc3cc4c(cc3nc12)C1c2ccccc2C4c2ccccc21)(C(C)C)C(C)C", 0.76),
    ("COCCOCCOCN1C(=O)c2ccc3c(-c4ccccc4)c4c5ccc6c7c(ccc(c(-c8ccccc8)c4c4ccc(c2c34)C1=O)c75)C(=O)N(COCCOCCOC)C6=O", 0.05),
]

Report photoluminescence quantum yield for each item below.
1. O=C1c2ccccc2C(=O)C1C1C(=O)c2c3ccccc3cc3cc4ccccc4c1c23 (configuration not stated)
2. CCCCCCN1C(=O)c2cccc3c(-c4ccc(-c5cc(-c6ccccc6)nn5-c5ccccc5)s4)ccc(c23)C1=O
3. Oc1ccc2ncccc2c1
4. CCCCCCOc1cc(N(CC)CC)ccc1/C=C/C(=C(C#N)C#N)c1ccc2c(c1)c1ccccc1n2CC
5. O=c1oc2ccccc2cc1-c1ccc(-c2ccc(-c3cc4ccccc4oc3=O)cc2)cc1
6. CCN(CC)c1ccc2c(c1)oc(=O)c1cc3cnn(-c4ccccc4)c3nc12

1. 0.247
2. 0.16
3. 0.043
4. 0.121
5. 0.49
6. 0.325

Count: 3. Required value per item: photoluminescence quantum yield.
1. CCCCCCCCCCCCC(CCCCCCCCCC)Cn1c2cc(C=C(C#N)C#N)c3cccc4c5cccc6c(C=C(C#N)C#N)cc1c(c65)c2c34 (configuration not stated)
2. c1ccc(-c2cc3cc4cccc5c(-c6ccccc6)cc6cc7cccc2c7c3c6c45)cc1
3. Cc1nc(-c2ccccc2O)n2c1CCCC2

1. 0.115
2. 0.33
3. 0.63

Kindly give each listed record's photoluminescence quantum yield.
1. F[B-]1(F)Oc2ccccc2-c2c3c(c4c([n+]21)CCc1ccccc1-4)CCc1ccccc1-3
2. COc1ccc(-c2cc3c4c(c2)CCc2cc(-c5ccc(OC)cc5)cc(c2-4)CC3)cc1
3. O=Cc1c(O)c(-c2nc3ccccc3s2)cc2ccccc12
4. CC(C)(C)c1ccc(-n2c(-c3ccc(-c4ccc(N(c5ccccc5)c5ccccc5)cc4)cc3)nc3c4ccccc4c4ccccc4c32)cc1

1: 0.11; 2: 1; 3: 0.109; 4: 1

Need photoluminescence quantum yield of O=C1c2ccccc2-c2nc3c(F)c(F)c(F)c(F)c3n21 , thanks.
0.22

====

assay summary: photoluminescence quantum yield (fraction); solvent given as SMILES
recorded conditions: in O=P(c1ccccc1)(c1ccccc1)c1ccc2oc3ccc(P(=O)(c4ccccc4)c4ccccc4)cc3c2c1
measured property: photoluminescence quantum yield
One number for each entry.

The cases that follow already have their photoluminescence quantum yield on record.
# smiles entry, photoluminescence quantum yield
data = [
    ("c1ccc(-c2nc(-c3ccccc3)nc(-c3ccc(-n4c5ccccc5c5ccc6c(c7ccccc7n6-c6ccccc6)c54)cc3)n2)cc1", 0.9),
    ("c1ccc(-c2nc(-c3ccccc3)nc(-c3cc(-n4c5ccccc5c5ncccc54)c(-n4c5ccccc5c5ncccc54)c(-n4c5ccccc5c5ncccc54)c3)n2)cc1", 0.54),
    ("c1ccc(-c2nc(-c3ccccc3)nc(-c3cc(-n4c5ccccc5c5ccccc54)cc(-n4c5ccccc5c5ccccc54)c3)n2)cc1", 0.58),
    ("CC1(C)c2ccccc2N(c2ccc(-c3ncccn3)cc2)c2ccccc21", 0.83),
    ("c1ccc(-c2nc(-c3ccccc3)nc(-c3cc(-n4c5ccccc5c5ncccc54)cc(-n4c5ccccc5c5ncccc54)c3)n2)cc1", 0.21),
]

Now for a further molecule.
Name the reported photoluminescence quantum yield value associated with the molecule c1ccc(-c2nc(-c3ccc(N4c5ccccc5C(c5ccccc5)(c5ccccc5)c5ccccc54)cc3)cc(-c3ccc(N4c5ccccc5C(c5ccccc5)(c5ccccc5)c5ccccc54)cc3)n2)cc1
0.94

====

assay summary: photoluminescence quantum yield (fraction); solvent given as SMILES
recorded conditions: in O
Quick rule: photoluminescence quantum yield of at least 0.2 means yes (1), below that means no (0).

# smiles entry, group
data = [
    ("Nc1ccc2[nH]ncc2c1", "yes (1)"),
    ("COc1ccc(/C=C/C2=NC(=C\\c3ccncc3)/C(=O)N2C)cc1", "no (0)"),
    ("Nc1cccnc1", "no (0)"),
    ("Cc1ccc2c(c1)n(C)c(-c1ccc(-c3ccc(-c4ccc(-c5n(C)c6cc(C)ccc6[n+]5C)cc4)cc3)cc1)[n+]2C", "yes (1)"),
    ("CC1(C)C(/C=C/c2cc3ccc(O)cc3oc2=O)=[N+](CCCS(=O)(=O)[O-])c2ccccc21", "no (0)"),
]

Does photoluminescence quantum yield meet or surpass 0.2 for Nc1ccccc1C(=O)O ?
yes (1)

Test whether the molecule CN(C)c1ccc2c(c1)[Si](C)(C)C1=CC(=[N+](C)C)C=CC1=C2C#Cc1ccccc1 records photoluminescence quantum yield of 0.2 or higher.
no (0)

Determine whether this molecule has photoluminescence quantum yield no lower than 0.2: CCN(CC)c1ccc2cc(/C=C/c3cccc[n+]3CCCS(=O)(=O)[O-])c(=O)oc2c1
no (0)

====

assay summary: photoluminescence quantum yield (fraction); solvent given as SMILES
recorded conditions: in C1CCOC1
Param threshold (0.6) applies to photoluminescence quantum yield; output label 1 when value >= threshold, label 0 when value < threshold.

// known answers, use as guide
# compound, group
measured = [
    ("O=C(c1ccc(N2c3ccccc3Sc3ccccc32)cc1)c1ccc2sc3ccccc3c2c1", "label 0"),
    ("Cc1nn(-c2ccccc2)c(C2=NN(c3ccc(Br)cc3)[C@@H](c3ccccc3)[C@@H]2c2ccccc2)c1C#N", "label 1"),
]

Check the entry CCCCCCc1ccc2c3c(ccc2c1)O[B-](F)(F)[N+](c1cc([N+]2=Cc4c(ccc5cc(CCCCCC)ccc45)O[B-]2(F)F)cc([N+]2=Cc4c(ccc5cc(CCCCCC)ccc45)O[B-]2(F)F)c1)=C3 : does photoluminescence quantum yield equal or exceed 0.6?
label 0

Decide: is the reported value of photoluminescence quantum yield for CCC1=C(C)C2=C(c3cc(C4=C5C(C)=C(CC)C(C)=[N+]5[B-](F)(F)n5c(C)c(CC)c(C)c54)cc(C4=C5C(C)=C(CC)C(C)=[N+]5[B-](F)(F)n5c(C)c(CC)c(C)c54)c3)c3c(C)c(CC)c(C)n3[B-](F)(F)[N+]2=C1C equal to or greater than 0.6?
label 1

Entry CCn1c2ccccc2c2cc(-c3cc(-c4ccc5c(c4)c4ccccc4n5CC)nc(-c4ccc(OC)cc4)n3)ccc21 : is its photoluminescence quantum yield no less than 0.6?
label 0

Answer whether photoluminescence quantum yield of O=C1NC(=O)C(c2c[nH]c3ccccc23)=C1c1c[nH]c2ccccc12 is greater than or equal to 0.6.
label 0

Is reported photoluminescence quantum yield greater than or equal to 0.6 here: F[Si-](F)(c1ccccc1)(c1c2ccccc2cc2ccccc12)c1c2ccccc2cc2ccccc12
label 0

# check: photoluminescence quantum yield of C(=C\c1nc2ccccc2[nH]1)/c1ccc(/C=C/c2nc3ccccc3[nH]2)cc1 is greater than or equal to 0.6
label 1

Would you say N#Cc1ccc(C=C(c2ccccc2)c2ccccc2)cc1 shows photoluminescence quantum yield at minimum 0.6?
label 0

Could you tell me if the measured photoluminescence quantum yield of CCOC(=O)C1=CN(c2ccccc2)C=CC1c1ccccc1 (stereo unspecified) reaches 0.6 or more?
label 0
